Molecular target: FPR2 (Homo sapiens (Human))
Sequence (P25090 whole entry): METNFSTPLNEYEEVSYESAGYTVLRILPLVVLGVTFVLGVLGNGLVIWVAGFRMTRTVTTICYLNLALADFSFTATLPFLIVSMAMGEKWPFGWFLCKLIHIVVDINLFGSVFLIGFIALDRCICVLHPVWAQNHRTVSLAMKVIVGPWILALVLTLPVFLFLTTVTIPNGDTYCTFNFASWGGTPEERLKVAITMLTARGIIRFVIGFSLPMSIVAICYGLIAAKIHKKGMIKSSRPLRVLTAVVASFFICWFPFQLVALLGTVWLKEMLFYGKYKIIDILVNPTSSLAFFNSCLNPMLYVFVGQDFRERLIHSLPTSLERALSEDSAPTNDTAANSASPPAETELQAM
Experiment: FLIPR Ca+2 response, HEK-Gα16 cells stably expressing the human FPR2 receptor (Table 4)
Type: cell-based
reported.endpoint: EC50 (nM)

>>> recorded_number("CC(C)NC(=O)C1C(C(=O)Nc2ccc(Br)cc2)C2CCC1C21CC1 (centres unmarked)")
6.7
>>> recorded_number("CCOP(=O)(CNC(=O)[C@@H](NC(=O)Nc1ccc(Br)cc1)[C@@H](C)CC)OCC")
2.9
>>> recorded_number("O=C(O)C1C(C(=O)Nc2ccc(I)cc2)C2C=CC1C21CC1 (centres unmarked)")
1.6

P. CC(C)C[C@H](NC(=O)Nc1ccc(Br)cc1)C(=O)N(C)CC(=O)O
Q. CCOC(=O)CCC1(C(C)C)NC(=O)N(NC(=O)Nc2ccc(Br)cc2)C1=O (centres unmarked)
R. CCC(CC)(NC(=O)Nc1ccc(Br)cc1)C(=O)NCC(=O)O
S. CC(C)C[C@H](NC(=O)Nc1ccc(Br)cc1)C(=O)N(C)CC(=O)OC(C)(C)C
Input line: Ascending by EC50, please: list the compounds accordingly. Record the ranking as a list of labels in the requested order.
Output line: P, Q, S, R

A. CCC[C@H](NC(=O)Nc1ccc(Br)cc1)C(=O)NCC(=O)OC(C)C
B. CC(C)C1(CC(=O)NCCC(=O)O)NC(=O)N(NC(=O)Nc2ccc(Br)cc2F)C1=O (centres unmarked)
Input line: Would you mind telling me which has the lower recorded EC50 between A and B ? The response must carry the label of the picked entry.
Output line: B

I. CCC1(C(C)C)NC(=O)N(NC(=O)Nc2ccc(Br)cc2F)C1=O (centres unmarked)
II. CCC1(CCc2ccccc2)NC(=O)N(NC(=O)Nc2ccc(Br)cc2F)C1=O (centres unmarked)
Input line: Would you mind telling me which has the lower recorded EC50 between I and II ? The response must carry the label of the picked entry.
Output line: I

I. CC1(CCc2ccc(O)c(F)c2)NC(=O)N(NC(=O)Nc2ccc(Br)cc2)C1=O (centres unmarked)
II. CC(C)C[C@H](NC(=O)Nc1ccc(Br)cc1)C(=O)NCC(N)=O
Input line: Would you mind telling me which has the lower recorded EC50 between I and II ? The response must carry the label of the picked entry.
Output line: II
(II: 1.1 nM, I: 8 nM)
